assay-text: protein stability index of a GFP-peptide fusion (GPS, HEK-293T) (PSI 1-6); higher = more stable;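 also: 24-mer peptide tiles fused after GFP, lentivirally expressed, FACS-sorted into six equal bins by GFP/DsRed ratio, decoded by Illumina sequencing, PSI is the read-weighted mean bin number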
condition-info: treatment: DMSO; c terminus: a fixed tail appended
Returns one of rule met or rule not met; rule met when protein stability index is >= 3.

1) SFGWSDRAKVKTDDIARIYQPKRY [FAM98B] ... rule not met

Item LDRLKVLMQVHASRSNNMGIVGGF [SLC25A25] with protein stability index of 3 or above?
rule not met

Given the entry RFLLKETLNQLQSLQNSLECAMET [NECAB1] , answer whether its protein stability index meets or surpasses 3.
rule not met

Check the entry DPPSSSEECPAHLLEDPLCADVIL [RHOBTB2] : does protein stability index equal or exceed 3?
rule met

* * *

assay-text: protein stability index of a GFP-peptide fusion (GPS, HEK-293T) (PSI 1-6); higher = more stable
condition-info: treatment: DMSO; c terminus: a fixed tail appended
readout-kind: protein stability index
Lab note: write the figure by itself, no unit.

Some sequences with known protein stability index results, for comparison:
1) RGFCAFLGSWLVPFAYLTVLDLSK [POMT2] ... 3.24
2) YGFYLRAGSEQKGQIIKDIDSGSP [PDZK1] ... 3.2

Quick one: give measured protein stability index for APTKPHDYRQEQPETFWIQRAPQL [SPAG8]
3.61

Give protein stability index for the following sequence: EVRKLTQRLEEMTQRMEALENRLR [MATN2]
2.57

Write down protein stability index measured for item IVVATLPIPVVFVLRHFHLLSDGS [SLC6A17]
2.92

State its protein stability index for this sequence: VHVFGDELSLVTLFRCIQNMPETL [TNFSF13B]
2.5

Give protein stability index for the following sequence: REPQEDSQKDLENDPSVNSQAQET [TOR1AIP2]
5.68

Supply recorded protein stability index for QLLWREFFYTAATNNPRFDKMEGN [CRY1] here.
2.02

Provide one value: measured protein stability index of GRPIPGTSTRYEQPKCDNTARAHP [SMOC2]
4.76

* * *

assay-text: protein stability index of a GFP-peptide fusion (GPS, HEK-293T) (PSI 1-6); higher = more stable
condition-info: treatment: DMSO; c terminus: a fixed tail appended
Kindly return 1 (yes) if reported protein stability index is no lower than 3; return 0 (no) if it is lower.

Illustrative cases are given below, each with its answer.
1) EDSRTSKESMSEADRAQKMDGESE [EHMT1] ... 1 (yes)
2) TITIGMFPAVTVEVKSSIAGSSTW [SLC29A1] ... 0 (no)
3) ELDDPGQPVSLRRRKREVLVEDMV [ZNF24] ... 1 (yes)
4) GSRLAEFGAAGVNRLSIGLQSLDD [RSAD1] ... 1 (yes)
5) YLKNLPLLSKYCGYREDNIPQLED [TPH1] ... 0 (no)

Reported protein stability index at or above 3? SSKFYDLFLMDLSEGELGGPSEPG [RHOBTB2]
1 (yes)

Is reported protein stability index greater than or equal to 3 here: DQDDRRTWDGRPLTMAATFDDCLY [GFOD1]
1 (yes)

Record SQSSASQPRLSYAEMAEDYPRYPD [CLCN6] ; criterion: protein stability index no lower than 3. Met?
1 (yes)

Please check the record TGLELIAEESNPPLQDFPNSISSD [MIA2] and state if its protein stability index is at or above 3.
1 (yes)

Dear colleague, could you confirm whether HPGFKDNVYRKRRKYFADLAMNYK [TPH1] has protein stability index at or above 3?
0 (no)

Determine whether this sequence has protein stability index no lower than 3: SLFAFKSFRENWQRAWVRALNEQA [C2CD2L]
0 (no)
